These entries and their values trace back to patent US20210087281A1.

target: native mouse MET on living cells (mouse, UniProt P16056 25-1379); assay: cell-based or functional assay
OBSERVED PROPERTY: scatter score 0-4, MLP29, 0.111 nM (score)
Numbers only, in score.

The cases that follow already have their scatter score 0-4, MLP29, 0.111 nM on record.
71D4 chimeric llama-human IgG1 mAb (antibody, V domains shown, llama VH on human IgG1 CH1-CH2-CH3, llama VL on human lambda CL) VH: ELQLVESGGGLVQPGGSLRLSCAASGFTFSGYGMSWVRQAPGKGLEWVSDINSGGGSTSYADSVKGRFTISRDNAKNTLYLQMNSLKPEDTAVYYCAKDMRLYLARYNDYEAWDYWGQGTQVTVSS VL: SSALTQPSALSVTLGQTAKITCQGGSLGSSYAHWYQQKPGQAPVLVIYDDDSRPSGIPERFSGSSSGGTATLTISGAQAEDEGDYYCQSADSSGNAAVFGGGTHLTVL :: 0
76G7 chimeric llama-human IgG1 mAb (antibody, V domains shown, llama VH on human IgG1 CH1-CH2-CH3, llama VL on human lambda CL) VH: QVQLVESGGNLVQPGGSLRLSCAASGFTFSNYYMSWVRQAPGKGLEWVSDIYSDGSTTWYSDSVKGRFTISRDNAKNTLSLQMNSLKSEDTAVYYCARVKIYPGGYDAWGQGTQVTVSS VL: QAGLTQPPSVSGSPGKTVTISCAGNSSDVGYGNYVSWYQQFPGMAPKLLIYLVNKRASGITDRFSGSKSGNTASLTISGLQSEDEADYYCASYTGSNNIVFGGGTHLTVL :: 0
71G2 chimeric llama-human IgG1 mAb (antibody, V domains shown, llama VH on human IgG1 CH1-CH2-CH3, llama VL on human lambda CL) VH: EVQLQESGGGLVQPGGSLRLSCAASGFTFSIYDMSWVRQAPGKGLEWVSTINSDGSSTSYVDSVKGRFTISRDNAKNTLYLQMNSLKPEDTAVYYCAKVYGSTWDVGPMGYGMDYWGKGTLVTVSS VL: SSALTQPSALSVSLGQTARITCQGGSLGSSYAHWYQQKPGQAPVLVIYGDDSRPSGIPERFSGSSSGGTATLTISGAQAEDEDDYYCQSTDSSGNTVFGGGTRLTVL :: 4

*Q* Any idea what its scatter score 0-4, MLP29, 0.111 nM is? The binder is 71C3 chimeric llama-human IgG1 mAb (antibody, V domains shown, llama VH on human IgG1 CH1-CH2-CH3, llama VL on human lambda CL) VH: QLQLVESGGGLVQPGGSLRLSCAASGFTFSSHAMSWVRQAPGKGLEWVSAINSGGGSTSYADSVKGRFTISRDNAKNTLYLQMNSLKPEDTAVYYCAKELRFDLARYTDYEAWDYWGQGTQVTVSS VL: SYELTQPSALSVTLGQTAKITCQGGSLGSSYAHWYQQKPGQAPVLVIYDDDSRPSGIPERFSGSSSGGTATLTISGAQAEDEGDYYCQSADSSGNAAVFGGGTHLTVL
*A* 1
